Source of measurements: paper PMC4826332

target: CYP1A2 (Homo sapiens); experiment: NADPH-dependency assay, P450 1A2; conditions: human, pH 7.6, probe methoxyresorufin (MROD), 5 µM
Sequence (P05177 whole entry): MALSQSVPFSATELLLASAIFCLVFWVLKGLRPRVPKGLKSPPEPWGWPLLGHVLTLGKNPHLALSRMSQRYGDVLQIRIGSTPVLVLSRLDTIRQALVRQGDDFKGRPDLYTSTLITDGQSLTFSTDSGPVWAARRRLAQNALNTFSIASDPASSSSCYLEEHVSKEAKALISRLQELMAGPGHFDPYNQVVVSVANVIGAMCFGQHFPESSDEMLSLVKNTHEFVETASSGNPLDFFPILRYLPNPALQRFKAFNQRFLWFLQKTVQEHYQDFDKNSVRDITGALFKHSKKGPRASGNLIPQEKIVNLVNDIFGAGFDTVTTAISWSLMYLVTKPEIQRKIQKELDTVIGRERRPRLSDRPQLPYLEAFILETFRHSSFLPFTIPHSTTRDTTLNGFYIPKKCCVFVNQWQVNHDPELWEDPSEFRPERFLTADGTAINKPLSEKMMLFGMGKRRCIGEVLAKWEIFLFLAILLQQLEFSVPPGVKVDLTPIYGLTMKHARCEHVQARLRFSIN
Endpoint: inhibition at 6 min, 0.01 µM (%)
The reply should be a number in %, with the unit left off.

* Cc1cc2c(ccc3c(=O)cc(-c4ccccc4)oc32)o1 | 90

Task: Returns the measured inhibition at 6 min, 0.01 µM for the input compound. Input: Cc1cc2c(cc(O)c3c(=O)cc(-c4ccccc4)oc32)o1
Result: 90
